Study system: HLA-A*02 (human)
Protocol summary: UV peptide-exchange ELISA, yield grade
Observation type: peptide exchange yield

So for VLHSKFWVV [VLHSKFWVV (SEQ ID NO: 71)] , the logged peptide exchange yield turned out to be 50 to 75%

# binder VTFKEYVTV [VTFKEYVTV (SEQ ID NO: 79)] ; its peptide exchange yield = 20 to 49%

The value of peptide exchange yield measured for the binder KLIFSVEAV [KLIFSVEAV (SEQ ID NO: 66)] turned out to be 50 to 75%

Recorded result, ALLPELREV [ALLPELREV (SEQ ID NO: 143)] , peptide exchange yield: 50 to 75%

Short answer for ALADFMLSL [ALADFMLSL (SEQ ID NO: 101)] : peptide exchange yield was 50 to 75%
